Data origin, for the record: the supplement of paper PMC13380429

tested on: Vero E6 infected with SARS-CoV-2; test: inhibition of SARS-CoV-2 cytopathic effect; higher = more antiviral protection, active = above 15; conditions: 1 nM; 48 h
reported.metric: inhibition of SARS-CoV-2 cytopathic effect (%)
Expressed in %, but write only the number.

Known results for compounds:
compound	tested.target	value.unit	reported.value
CC1=C(/C=C/C(C)=C/C=C/C(C)=C/C=C/C=C(C)/C=C/C=C(C)/C=C/C2=C(C)C(=O)[C@@H](O)CC2(C)C)C(C)(C)C[C@H](O)C1=O [astaxanthin]	Vero E6 infected with SARS-CoV-2	%	-9.22
Cc1cc(OCCCS(C)(=O)=O)cc(C)c1-c1cccc(COc2ccc3c(c2)OC[C@H]3CC(=O)O)c1	Vero E6 infected with SARS-CoV-2	%	-1.83
CN1C(=O)OC(C)(C)C1=O [trimethadione]	Vero E6 infected with SARS-CoV-2	%	-3.89
CC1(C)CC[C@]2(C(=O)O)CC[C@]3(C)C(=CC[C@@H]4[C@@]5(C)CC[C@H](O)C(C)(C)[C@@H]5CC[C@]43C)[C@@H]2C1 [oleanolic-acid]	Vero E6 infected with SARS-CoV-2	%	-0.65
CCN(CC)CCOc1ccc2c(c1)C(=O)c1cc(OCCN(CC)CC)ccc1-2 [tilorone]	Vero E6 infected with SARS-CoV-2	%	-0.99

Read the entry O=C(CO)[C@@H](O)[C@@H](O)[C@H](O)CO [tagatose] and write its reported inhibition of SARS-CoV-2 cytopathic effect. -1.77

Read the entry CN1C(=O)CCS(=O)(=O)C1c1ccc(Cl)cc1 (centres undefined) [chlormezanone] and write its reported inhibition of SARS-CoV-2 cytopathic effect. -2.2

Read the entry NC(=O)c1cn(Cc2c(F)cccc2F)nn1 [rufinamide] and write its reported inhibition of SARS-CoV-2 cytopathic effect. 2.25

Read the entry `C[C@@]1(O)[C@H](O)[C@@H](CO)O[C@H]1n1ccc(N)nc1=O` and write its reported inhibition of SARS-CoV-2 cytopathic effect. 5.4

* * *

system: Vero E6 infected with SARS-CoV-2; assay: inhibition of SARS-CoV-2 cytopathic effect; higher = more antiviral protection, active = above 15; conditions: 833.33 nM; 48 h
Form field: inhibition of SARS-CoV-2 cytopathic effect (one value per entry).
Expressed in %, but write only the number.

molecule	reported.value
C[C@](N)(Cc1ccc(O)c(O)c1)C(=O)O [methyldopa]	-1.66
CCn1c(=O)c(-c2cc[nH]n2)cc2c(C)nc(N)nc21 [voxtalisib]	0.46
O=C(c1cncc(Br)c1)N1CCC(N2CCCC2)CC1	-4.94
COC(=O)C[C@](O)(CCCC(C)(C)O)C(=O)O[C@@H]1C(OC)=C[C@]23CCCN2CCc2cc4c(cc2[C@H]13)OCO4 [homoharringtonine]	4.43

// next item, inhibition of SARS-CoV-2 cytopathic effect requested
Return reported inhibition of SARS-CoV-2 cytopathic effect for target or system Vero E6 infected with SARS-CoV-2, item `C[C@@]1(O)[C@H](O)[C@@H](CO)O[C@H]1n1ccc(N)nc1=O` . -5.49

* * *

test system: Vero E6 infected with SARS-CoV-2; assay: inhibition of SARS-CoV-2 cytopathic effect; higher = more antiviral protection, active = above 15; settings: 1 nM; 48 h
reported.metric: inhibition of SARS-CoV-2 cytopathic effect (%)
Expressed in %, but write only the number.

Read the entry `N#C/C(=C\c1ccc(O)c(O)c1)C(N)=O` and write its reported inhibition of SARS-CoV-2 cytopathic effect. 3.54

Read the entry `CC(=O)SC[C@@H](C)C(=O)N1CCC[C@H]1C(=O)N[C@@H](Cc1ccccc1)C(=O)O` and write its reported inhibition of SARS-CoV-2 cytopathic effect. -1.69

Read the entry `CCOc1cc(C=O)ccc1O` and write its reported inhibition of SARS-CoV-2 cytopathic effect. -2.26

* * *

Form field: inhibition of SARS-CoV-2 cytopathic effect (one value per entry).
tested on: Vero E6 infected with SARS-CoV-2; assay: inhibition of SARS-CoV-2 cytopathic effect; higher = more antiviral protection, active = above 15; conditions: 833.33 nM; 48 h
Expressed in %, but write only the number.

Known results for compounds:
CCCCCCCCCCCCCC(=O)[O-].CCCCCCCCCCCCCC(=O)[O-].N[C@@H]1CCCC[C@H]1N.[Pt+2] -1
COc1ccc(-c2nc(-c3ccc(-c4cccc(Cl)c4)o3)[nH]c2-c2ccc(OC)cc2)cc1 5.51
C=CCC1(CC(C)C)C(=O)NC(=O)NC1=O 1.69
Cn1cc(-c2ccncc2)c(-c2ccc(OCc3ccc4ccccc4n3)cc2)n1 16
O=C1NN(C(=O)Nc2ccc(Br)cc2)[C@@H](c2ccccc2)[C@@H]1c1ccccc1 -0.26
CCOc1cncc(/C=C/CCNC)c1 0.41
CC(C)Oc1ccc(-c2nc(-c3cccc4c3CC[C@@H]4NCCO)no2)cc1C#N 0.63
CC(=O)Oc1ccccc1C(=O)Oc1ccccc1C(=O)O -0.27
CN1CCN(C(c2ccccc2)c2ccccc2)CC1 -0.45
Cc1ccc(CNc2ncnc3ccc(-c4ccc(CO)o4)cc23)o1 -0.45

Read the entry `CN(C(=O)Cc1ccc(Cl)c(Cl)c1)[C@H](CN1CCCC1)c1ccccc1` and write its reported inhibition of SARS-CoV-2 cytopathic effect. -0.24

Read the entry `CS(=O)(=O)c1ccc(C2=C(c3ccccc3)C(=O)OC2)cc1` and write its reported inhibition of SARS-CoV-2 cytopathic effect. 0.62

* * *

Form field: inhibition of SARS-CoV-2 cytopathic effect (one value per entry).
test system: Vero E6 infected with SARS-CoV-2; assay: inhibition of SARS-CoV-2 cytopathic effect; higher = more antiviral protection, active = above 15; conditions: 833.33 nM; 48 h
Expressed in %, but write only the number.

compound	reported.value
CCC(=N\O)/C(C)=C/c1ccc(F)cc1	-0.42
CC(O)CN1CCN(CC(=O)[O-])CCN(CC(=O)[O-])CCN(CC(=O)[O-])CC1.[Gd+3] (stereo not drawn)	0.32
Cc1ccc(S(=O)(=O)NC2c3ccccc3Oc3ccccc32)cc1	-6.38
[Cl][Ru-]([Cl])([Cl])[Cl].[Na+].c1ccc2[nH]ncc2c1.c1ccc2[nH]ncc2c1	5.02
COc1cc(OC)c(/C=C2/C(=O)Nc3ccccc32)c(OC)c1	1.29

Return reported inhibition of SARS-CoV-2 cytopathic effect for target or system Vero E6 infected with SARS-CoV-2, item `Cc1cc(N2CCCCC2)nc2ccccc12` . 0.63

Return reported inhibition of SARS-CoV-2 cytopathic effect for target or system Vero E6 infected with SARS-CoV-2, item CC1(C)O[C@@H]2C[C@H]3[C@@H]4CCC5=CC(=O)C=C[C@]5(C)[C@H]4[C@@H](O)C[C@]3(C)[C@]2(C(=O)CO)O1 [desonide] . 5.19

Return reported inhibition of SARS-CoV-2 cytopathic effect for target or system Vero E6 infected with SARS-CoV-2, item `CS(=O)(=O)CCNCc1nc(-c2ccc3ncnc(Nc4ccc(OCc5cccc(F)c5)c(Cl)c4)c3c2)cs1` . -4.71

Return reported inhibition of SARS-CoV-2 cytopathic effect for target or system Vero E6 infected with SARS-CoV-2, item O=C(Nc1ccccc1)c1ccccc1O [salicylanilide] . 1.14

Return reported inhibition of SARS-CoV-2 cytopathic effect for target or system Vero E6 infected with SARS-CoV-2, item `NC(N)=Nc1nc(CSCCN/C=N/S(=O)(=O)c2ccc(Br)cc2)cs1` . -0.19

* * *

Form field: inhibition of SARS-CoV-2 cytopathic effect (one value per entry).
tested on: Vero E6 infected with SARS-CoV-2; experiment: inhibition of SARS-CoV-2 cytopathic effect; higher = more antiviral protection, active = above 15; settings: 1 nM; 48 h
Expressed in %, but write only the number.

Known results for molecules:
molecule	reported.value
O=C(O)COc1nn(Cc2ccccc2)c2ccccc12 [bendazac]	-1.4
CC(C)c1noc(N2CCC(COc3ccc(-c4ccc(S(C)(=O)=O)cc4)nc3)CC2)n1	-1.46
COc1cccc2c1C(=O)c1c(O)c3c(c(O)c1C2=O)C[C@@](O)(C(=O)CO)C[C@@H]3O[C@H]1C[C@H](N)[C@H](O[C@@H]2CCCCO2)[C@H](C)O1 [pirarubicin]	-1.57
CC1(C)C(/C=C/C=C/C=C/C=C2\N(CCCCS(=O)(=O)O)c3ccc4ccccc4c3C2(C)C)=[N+](CCCCS(=O)(=O)[O-])c2ccc3ccccc3c21 [indocyanine-green]	-0.13
O=C(c1ccc(F)c(F)c1Nc1ccc(I)cc1F)N1CC(O)([C@@H]2CCCCN2)C1 [cobimetinib]	-0.38

// next item, inhibition of SARS-CoV-2 cytopathic effect requested
Read the entry `CCCNC(=O)Nc1ccc(Oc2ncnc3cc(OC)c(OC)cc23)cc1Cl` and write its reported inhibition of SARS-CoV-2 cytopathic effect. 0.58

* * *

Form field: inhibition of SARS-CoV-2 cytopathic effect (one value per entry).
system: Vero E6 infected with SARS-CoV-2; assay: inhibition of SARS-CoV-2 cytopathic effect; higher = more antiviral protection, active = above 15; details: 8.33 nM; 48 h

compound	reported.value
CC(C)C(=O)OC[C@@]1(N=[N+]=[N-])O[C@@H](n2ccc(N)nc2=O)[C@H](OC(=O)C(C)C)[C@@H]1OC(=O)C(C)C	1.09% (inactive)

Read the entry CCC(C)(Oc1ccc(C2(c3ccc(OC(C)(CC)C(=O)O)cc3)CCCCC2)cc1)C(=O)O (centres undefined) [clinofibrate] and write its reported inhibition of SARS-CoV-2 cytopathic effect. -1.53% (inactive)
